- measurement.target: human GPR119 (hGPR119) (Homo sapiens, UniProt Q8TDV5)
- Construct: expressed in transfected cells
- Sequence (Q8TDV5 whole entry): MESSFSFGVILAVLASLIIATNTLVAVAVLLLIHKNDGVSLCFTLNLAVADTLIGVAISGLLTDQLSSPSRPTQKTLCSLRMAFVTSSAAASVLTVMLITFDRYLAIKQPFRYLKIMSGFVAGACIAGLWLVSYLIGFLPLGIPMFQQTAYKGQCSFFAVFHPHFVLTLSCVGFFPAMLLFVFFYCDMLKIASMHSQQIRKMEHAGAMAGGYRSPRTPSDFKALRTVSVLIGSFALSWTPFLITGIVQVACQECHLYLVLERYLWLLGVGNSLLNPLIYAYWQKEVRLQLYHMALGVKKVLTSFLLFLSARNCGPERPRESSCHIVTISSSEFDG
- assay.explanation: cAMP accumulation assay (Cisbio cAMP Gs dynamic HTRF kit) in CHO-K1 cells stably expressing human GPR119
- Format: cell-based
- condition.context: 1 h, % activity normalized to Max and Min controls, 4-parameter fit
Structures can show the parent of a compound that is named as a salt.
endpoint.name: Emax

Answered cases to consult:
[[record]]
compound = "O=C(Cc1ccc(OCCCC2CCN(c3ncc(Cl)cn3)CC2)cc1F)N1CCC2(C1)CN(C(=O)CCCCS(=O)(=O)O)C2"
val = "≥ 130%"

[[record]]
compound = "O=C(CCCCS(=O)(=O)O)N1CCN(C(=O)Cc2ccc(OCCCC3CCN(c4ncc(Cl)cn4)CC3)cc2F)C2CC21 (stereo not drawn)"
val = "100 to 130%"

[[record]]
compound = "O=C(Cc1ccc(OCCCC2CCN(c3ncc(Cl)cn3)CC2)cc1F)N1CCC2(CCCN2C[C@H](O)[C@@H](O)[C@H](O)[C@H](O)CO)C1 (stereo in doubt)"
val = "≥ 130%"

[[record]]
compound = "O=C(Cc1c(F)cc(OCCCC2CCN(c3ncc(Cl)cn3)CC2)cc1F)N1CCN(C[C@H](O)[C@@H](O)[C@H](O)[C@H](O)CO)CC1 [Example 85, formate]"
val = "≥ 130%"

[[record]]
compound = "O=C(Cc1ccc(OCCCC2CCN(c3ncc(Cl)cn3)CC2)cc1F)N1C[C@H]2C[C@@H]1CN2C[C@H](O)[C@H](O)[C@H](O)CO"
val = "≥ 130%"


Attention now turns to another entry.
**Q:** Requested field: Emax. Item: O=C(Cc1ccc(OCCCC2CCN(c3ncc(Cl)cn3)CC2)cc1F)N1C[C@@H]2C[C@H]1CN2C[C@H](O)[C@@H](O)[C@H](O)[C@H](O)CO
**A:** 100 to 130%

---

- measurement.target: UniProt Q8TDV5
- assay.explanation: cAMP accumulation assay (Cisbio cAMP Gs dynamic HTRF kit) in CHO-K1 cells stably expressing human GPR119
- condition.context: 60 minutes at 37° C., 4-parameter fit
Listed next: entries and their corresponding EC50.

Reference set, count: 8
[[record]]
compound = "O=C(Cc1ccc(OCCCC2CCN(c3ncc(Cl)cn3)CC2)nc1)N1CCN(C[C@H](O)[C@@H](O)[C@H](O)[C@H](O)CO)CC1"
endpoint_name = "EC50"
val = "100 to 1000 nM"

[[record]]
compound = "O=C(Cc1ccc(OCCCC2CCN(c3ncc(Cl)cn3)CC2)cc1F)N1CCC2(CCCN2C[C@H](O)[C@@H](O)[C@H](O)[C@H](O)CO)C1 (stereo in doubt)"
endpoint_name = "EC50"
val = "≤ 100 nM"

[[record]]
compound = "O=C(Cc1ccc(OCCCC2CCN(c3ncc(Cl)cn3)CC2)cc1F)N1CC2(C1)OCC2NC[C@H](O)[C@H](O)[C@H](O)CO (stereo partly drawn)"
endpoint_name = "EC50"
val = "≤ 100 nM"

[[record]]
compound = "O=C(Cc1ccc(OCCCC2CCN(c3ncc(Cl)cn3)CC2)cc1F)N1CC2CC(C1)N2C[C@H](O)[C@@H](O)[C@H](O)[C@H](O)CO"
endpoint_name = "EC50"
val = "≤ 100 nM"

[[record]]
compound = "O=C(Cc1ccc(OCCCC2CCN(c3ncc(Cl)cn3)CC2)cc1F)N1CCC12CN(C[C@H](O)[C@H](O)[C@H](O)CO)C2"
endpoint_name = "EC50"
val = "100 to 1000 nM"

[[record]]
compound = "O=C(Cc1ccc(OCCCC2CCN(c3ncc(Cl)cn3)CC2)cc1F)N1C[C@H]2C[C@@H]1CN2C[C@H](O)[C@@H](O)[C@H](O)[C@H](O)CO"
endpoint_name = "EC50"
val = "≤ 100 nM"

[[record]]
compound = "O=C(Cc1ccc(OCCCC2CCN(c3ncc(Cl)cn3)CC2)cc1F)N1CCCN(C[C@H](O)[C@H](O)[C@H](O)CO)CC1"
endpoint_name = "EC50"
val = "≤ 100 nM"

[[record]]
compound = "O=C(Cc1ccc(OCCCC2CCN(c3ncc(Cl)cn3)CC2)cc1F)N1C2CC1CN(C[C@H](O)[C@@H](O)[C@H](O)[C@H](O)CO)C2"
endpoint_name = "EC50"
val = "≤ 100 nM"


**Q:** Quick one: EC50 of O=C(Cc1ccc(OCCCC2CCN(c3ncc(Cl)cn3)CC2)cc1F)N1CC2(CCN2C[C@H](O)[C@H](O)[C@H](O)CO)C1 ?
**A:** ≤ 100 nM

**Q:** # get_value(readout='EC50', item= O=C(Cc1ccc(OCCCC2CCN(c3ncc(Cl)cn3)CC2)cc1F)N1CC2(CCN2C[C@H](O)[C@@H](O)[C@H](O)[C@H](O)CO)C1 )
**A:** ≤ 100 nM

**Q:** If you can, please state the reported EC50 value of O=C(Cc1ccc(OCCCC2CCN(c3ncc(Cl)cn3)CC2)cc1F)N1C[C@@H]2CCN(C(=O)CCCCS(=O)(=O)O)[C@@H]2C1 .
**A:** ≤ 100 nM

**Q:** Please give the measured EC50 for this compound: O=C(CCCCS(=O)(=O)O)N1CC2(CCN2C(=O)Cc2ccc(OCCCC3CCN(c4ncc(Cl)cn4)CC3)cc2F)C1
**A:** > 10000 nM

Every entry's value here was drawn from patent US20240217983A1.
